These measurements were taken from ChEMBL document CHEMBL5550200.

Record type: deltaTm measurement. Applies to: Fibroblast growth factor receptor 2 (Homo sapiens)
Write it as a number; the unit K goes unstated.

[ask] Could you share which deltaTm value was measured for COc1cc(-c2cnc3nc2NCCCNS(=O)(=O)c2cccc(c2)N3)c(F)cc1Cl ?
[reply] 3.4

[ask] Could you share which deltaTm value was measured for O=S1(=O)NCCCNc2nc(ncc2-c2cc(Cl)c(Cl)cc2F)Nc2cccc1c2 ?
[reply] 5.7

[ask] Could you share which deltaTm value was measured for COc1cc(-c2cnc3nc2NCCCNS(=O)(=O)c2cc(ccc2OC)N3)ccc1F ?
[reply] 3.4

###

Biological target: Vascular endothelial growth factor receptor 1 (Homo sapiens)
Sequence (P17948 whole entry): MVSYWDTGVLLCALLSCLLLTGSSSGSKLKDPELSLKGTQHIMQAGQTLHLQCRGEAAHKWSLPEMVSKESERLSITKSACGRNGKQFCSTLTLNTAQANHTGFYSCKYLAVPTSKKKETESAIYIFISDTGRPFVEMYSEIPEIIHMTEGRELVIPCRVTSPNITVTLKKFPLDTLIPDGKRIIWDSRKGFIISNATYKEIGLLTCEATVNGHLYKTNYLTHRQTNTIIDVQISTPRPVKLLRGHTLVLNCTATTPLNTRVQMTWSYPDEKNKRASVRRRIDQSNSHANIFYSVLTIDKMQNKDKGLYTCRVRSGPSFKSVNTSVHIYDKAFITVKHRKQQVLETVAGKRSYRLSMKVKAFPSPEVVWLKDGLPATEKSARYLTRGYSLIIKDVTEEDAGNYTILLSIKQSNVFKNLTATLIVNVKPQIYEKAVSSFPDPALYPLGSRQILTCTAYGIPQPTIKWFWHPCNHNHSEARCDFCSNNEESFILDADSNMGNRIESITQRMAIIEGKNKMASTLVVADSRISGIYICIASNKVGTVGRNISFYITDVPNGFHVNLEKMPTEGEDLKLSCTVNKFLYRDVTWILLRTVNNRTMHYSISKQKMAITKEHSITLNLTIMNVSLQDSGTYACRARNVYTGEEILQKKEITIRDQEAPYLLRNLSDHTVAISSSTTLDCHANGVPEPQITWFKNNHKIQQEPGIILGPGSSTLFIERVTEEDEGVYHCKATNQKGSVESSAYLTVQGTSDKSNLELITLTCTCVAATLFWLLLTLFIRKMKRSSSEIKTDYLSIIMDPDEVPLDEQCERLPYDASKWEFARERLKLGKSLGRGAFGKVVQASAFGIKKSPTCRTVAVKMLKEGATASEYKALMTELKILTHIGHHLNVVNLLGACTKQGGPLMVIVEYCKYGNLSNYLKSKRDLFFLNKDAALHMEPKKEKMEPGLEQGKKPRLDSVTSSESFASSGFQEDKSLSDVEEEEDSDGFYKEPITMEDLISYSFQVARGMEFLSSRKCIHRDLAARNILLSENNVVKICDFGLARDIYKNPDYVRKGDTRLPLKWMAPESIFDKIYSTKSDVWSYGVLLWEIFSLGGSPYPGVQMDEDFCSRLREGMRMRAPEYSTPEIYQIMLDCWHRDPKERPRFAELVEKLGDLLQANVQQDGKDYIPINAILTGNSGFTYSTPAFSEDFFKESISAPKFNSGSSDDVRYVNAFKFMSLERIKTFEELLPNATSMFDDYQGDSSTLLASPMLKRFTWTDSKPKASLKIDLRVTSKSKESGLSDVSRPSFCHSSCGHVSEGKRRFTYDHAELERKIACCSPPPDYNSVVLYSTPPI
Test: Induction of stabilization of recombinant FLT1 (unknown origin) assessed as change in melting temperature by differential scanning fluorimetry assay
OBSERVABLE: deltaTm (K)
Write it as a number; the unit K goes unstated.

[ask] Could you share which deltaTm value was measured for COc1cc(-c2cnc3nc2NCCCNS(=O)(=O)c2cc(ccc2O)N3)ccc1F ?
[reply] 3

[ask] Could you share which deltaTm value was measured for COc1cc(-c2cnc3nc2NCCCNS(=O)(=O)c2cccc(c2)N3)c(F)cc1Cl ?
[reply] 3

[ask] Could you share which deltaTm value was measured for COc1cc(-c2cnc3nc2NCCCNS(=O)(=O)c2cc(ccc2OCCN2CCOCC2)N3)ccc1F ?
[reply] 3

###

Target: Ephrin type-B receptor 1 (Homo sapiens)
Assay: Induction of stabilization of recombinant EPHB1 (unknown origin) assessed as change in melting temperature by differential scanning fluorimetry assay
OBSERVABLE: deltaTm (K)
Write it as a number; the unit K goes unstated.

[ask] Could you share which deltaTm value was measured for COc1cc(-c2cnc3nc2NCCCNS(=O)(=O)c2cccc(c2)N3)cc(C(F)(F)F)c1 ?
[reply] 0.9

[ask] Could you share which deltaTm value was measured for O=S1(=O)NCCCNc2nc(ncc2-c2cccc(Cl)c2F)Nc2cccc1c2 ?
[reply] 3.1

[ask] Could you share which deltaTm value was measured for Nc1cc(-c2cnc3nc2NCCCNS(=O)(=O)c2cccc(c2)N3)ccc1F ?
[reply] 3.6
